pKi: −log10 of the molar value.
The compounds below have reported pKi for Kappa-type opioid receptor (Homo sapiens).
Outcome Measure: pKi

                         compound_structure  observed
0  O=C(N[C@@H]1CC[C@@]2(O)[C@H]3Cc4ccc(O)c5c4[C@@]2(CCN3CC2CC2)[C@H]1O5)c1ccnnc1      8.80
1  N#Cc1cc(C(=O)N[C@@H]2CC[C@@]3(O)[C@H]4Cc5ccc(O)c6c5[C@@]3(CCN4CC3CC3)[C@H]2O6)ccn1      9.89
2  COc1cc(C(=O)N[C@@H]2CC[C@@]3(O)[C@H]4Cc5ccc(O)c6c5[C@@]3(CCN4CC3CC3)[C@H]2O6)ccn1      9.34
3  COc1cnccc1C(=O)N[C@@H]1CC[C@@]2(O)[C@H]3Cc4ccc(O)c5c4[C@@]2(CCN3CC2CC2)[C@H]1O5      8.37
